experimental_target: C5aR (Homo sapiens (Human))
protocol_text: Chemotaxis assay using U937 cells (C5aR mediated migration)
cond: read-out: Mig IC50
pIC50: −log10 of the molar value.
Reported pIC50 values are given for each entry in this list.

Please review the entries below; each comes with its answer.
# molecule, observed_value
records = [
    ("CCc1cccc(CC)c1-n1nc2c(c1-c1ccc(NC(N)=O)cc1)CN(Cc1cc(Cl)ccc1C(F)(F)F)CC2", "7.30 to 8.30"),
    ("Cc1cccc(OCC(C)C)c1-n1nc2c(c1-c1ccc(N)c(Cl)c1)CN(c1ncc(C(F)(F)F)cc1F)CC2", "7.30 to 8.30"),
    ("Cc1cccc(C)c1-n1nc2c(c1-c1cc(F)c(NC(N)=O)cc1F)CN(c1ccc(C3CC3)cc1Cl)CC2", "≥ 8.30"),
    ("Cc1cccc(OCC(C)C)c1-n1nc2c(c1-c1ccc(NC(N)=O)cc1)CN(c1ccc(C(F)(F)F)c(Cl)c1)CC2", "7.30 to 8.30"),
    ("CCc1cccc(CC)c1-n1nc2c(c1-c1cc(F)c(NC(N)=O)cc1F)CN([C@@H](CC)c1ccccc1)CC2", "≥ 8.30"),
    ("CCC(C)N1CCc2nn(-c3c(C)cccc3OCC(C)C)c(-c3ccc(NC(N)=O)c(F)c3)c2C1 (stereo not shown)", "7.30 to 8.30"),
]

Now take the following molecule into account.
[Q] API: value(readout= pIC50, system= C5aR (Homo sapiens (Human)), query= "Cc1cccc(OCC(C)C)c1-n1nc2c(c1-c1ccc(NC(N)=O)cc1)CN(Cc1cc(Cl)ccc1C(F)(F)F)CC2" )
[A] ≥ 8.30

----------
experimental_target: C5aR (Homo sapiens (Human), UniProt P21730)
Sequence (P21730 whole entry): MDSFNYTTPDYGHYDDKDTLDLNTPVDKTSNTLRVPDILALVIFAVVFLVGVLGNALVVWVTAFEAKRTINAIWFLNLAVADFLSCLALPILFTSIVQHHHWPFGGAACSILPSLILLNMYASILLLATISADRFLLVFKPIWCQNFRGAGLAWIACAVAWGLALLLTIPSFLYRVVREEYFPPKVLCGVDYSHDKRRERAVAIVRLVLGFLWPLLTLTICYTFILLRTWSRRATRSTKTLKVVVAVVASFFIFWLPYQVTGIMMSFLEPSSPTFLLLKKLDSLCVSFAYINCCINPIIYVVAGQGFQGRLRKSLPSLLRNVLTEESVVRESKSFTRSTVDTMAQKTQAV
protocol_text: Chemotaxis assay using U937 cells (C5aR mediated migration)
cond: read-out: Mig IC50
pIC50: −log10 of the molar value.
reported_endpoint: pIC50

# compound, pIC50
measured = [
    ("Cc1cccc(C)c1-n1nc2c(c1-c1cc(F)c(NC(N)=O)cc1F)CN(C(C)(C)c1ccccc1)CC2", "≥ 8.30"),
]

Now take the following compound into account.
[Q] So what does the record say about pIC50 for "Cc1cc(Cl)cnc1N1CCc2nn(-c3c(C)cccc3OCC(C)C)c(-c3ccc(NC(N)=O)c(F)c3)c2C1" ?
[A] ≥ 8.30

----------
experimental_target: C5aR (Homo sapiens (Human), UniProt P21730)
protocol_text: Chemotaxis assay using U937 cells (C5aR mediated migration)
cond: read-out: Mig IC50
reported_endpoint: IC50

Please review the entries below; each comes with its answer.
# smiles_string, IC50
data = [
    ("Cc1cccc(OCC(C)C)c1-n1nc2c(c1-c1ccc(NC(N)=O)cc1)CN(c1ccc(F)cc1C(F)(F)F)CC2", "≤ 5 nM"),
    ("Cc1cccc(OCC(C)C)c1-n1nc2c(c1-c1ccc(NC(N)=O)cc1)CN(Cc1c(Cl)cccc1C(F)(F)F)CC2", "≤ 5 nM"),
    ("Cc1cccc(OCC(C)C)c1-n1nc2c(c1-c1ccc(NC(N)=O)cc1F)CN(c1ncc(C(F)(F)F)cc1F)CC2", "≤ 5 nM"),
    ("Cc1cccc(OCC(C)C)c1-n1nc2c(c1-c1ccc(NC(N)=O)c(F)c1)CN(c1ccc(C(F)(F)F)cc1Cl)CC2", "≤ 5 nM"),
    ("Cc1cccc(OCC(C)C)c1-n1nc2c(c1-c1ccc(NC(N)=O)cc1)CN(c1nc(C(F)(F)F)ccc1F)CC2", "5 to 50 nM"),
]

[Q] So what does the record say about IC50 for "CCc1cccc(CC)c1-n1nc2c(c1-c1cc(F)c(NC(N)=O)cc1F)CN(Cc1cc(Cl)ccc1C(F)(F)F)CC2" ?
[A] ≤ 5 nM

[Q] So what does the record say about IC50 for "Cc1cc(N)ccc1-c1c2c(nn1-c1c(C)cccc1C)CCN(c1ccccc1C(C)C)C2" ?
[A] 50 to 500 nM

----------
experimental_target: C5aR (Homo sapiens (Human), UniProt P21730)
protocol_text: Chemotaxis assay using U937 cells (C5aR mediated migration)
cond: read-out: Mig IC50
pIC50: −log10 of the molar value.
Reported pIC50 values are given for each entry in this list.

Please review the entries below; each comes with its answer.
# compound, observed_value
rows = [
    ("Cc1cccc(C)c1-n1nc2c(c1-c1cc(F)c(NC(=O)CO)cc1F)CN(c1ncc(Cl)cc1Cl)CC2 [Example 1.125]", "6.30 to 7.30"),
    ("CCc1cccc(CC)c1-n1nc2c(c1-c1cc(F)c(NC(N)=O)cc1F)CN(C(CO)c1ccccc1)CC2 (stereo not shown) [Example 1.079]", "7.30 to 8.30"),
    ("CCc1cccc(CC)c1-n1nc2c(c1-c1cc(F)c(NC(N)=O)cc1C)CN(Cc1ccc(C(F)(F)F)cc1C(F)(F)F)CC2 [Example 1.068]", "≥ 8.30"),
]

[Q] So what does the record say about pIC50 for CCc1cccc(CC)c1-n1nc2c(c1-c1ccc(NC(N)=O)cc1)CN(C(C)c1ccccc1C(F)(F)F)CC2 (stereo not shown) [Example 1.295] ?
[A] 7.30 to 8.30

[Q] So what does the record say about pIC50 for Cc1ccc(C(C)(C)C)cc1N1CCc2nn(-c3c(C)cccc3CCC(C)C)c(-c3ccc(NC(N)=O)cc3)c2C1 [Example 1.387] ?
[A] 7.30 to 8.30

[Q] So what does the record say about pIC50 for CCC(C)(C)CN1CCc2nn(-c3c(C)cccc3OCC(C)C)c(-c3ccc(NC(N)=O)cc3)c2C1 [Example 1.381] ?
[A] 7.30 to 8.30

[Q] So what does the record say about pIC50 for CCc1cccc(CC)c1-n1nc2c(c1-c1cc(F)c(NC(N)=O)cc1F)CN(C(C)(C)c1cccc(C(F)(F)F)c1)CC2 [Example 1.163] ?
[A] ≥ 8.30

----------
experimental_target: C5aR (Homo sapiens (Human))
protocol_text: Chemotaxis assay using U937 cells (C5aR mediated migration)
cond: read-out: Mig IC50
pIC50: −log10 of the molar value.
reported_endpoint: pIC50

Please review the entries below; each comes with its answer.
# compound, experimental_target, pIC50
rows = [
    ("CCc1cccc(CC)c1-n1nc2c(c1-c1cc(F)c(NC(C)=O)cc1F)CN(Cc1ccc(C(F)(F)F)cc1C(F)(F)F)CC2", "C5aR (Homo sapiens (Human))", "7.30 to 8.30"),
    ("Cc1cc(Cl)cnc1N1CCc2nn(-c3c(C)cccc3OCC(C)C)c(-c3cc(F)c(NC(N)=O)cc3F)c2C1", "C5aR (Homo sapiens (Human))", "≥ 8.30"),
    ("COc1ccc(CN2CCc3nn(-c4c(C)cccc4OCC(C)C)c(-c4ccc(NC(N)=O)cc4)c3C2)c(Cl)c1", "C5aR (Homo sapiens (Human))", "7.30 to 8.30"),
    ("Cc1cccc(OCC(C)C)c1-n1nc2c(c1-c1cc(F)c(NC(N)=O)cc1F)CN(c1ncccc1Cl)CC2", "C5aR (Homo sapiens (Human))", "≥ 8.30"),
    ("Cc1cccc(OCC(C)C)c1-n1nc2c(c1-c1ccc(NC(N)=O)cc1)CN(C(C)c1ccccc1C(F)(F)F)CC2 (stereo not shown)", "C5aR (Homo sapiens (Human))", "≥ 8.30"),
    ("COc1cccc(F)c1CN1CCc2nn(-c3c(C)cccc3OCC(C)C)c(-c3ccc(NC(N)=O)cc3)c2C1", "C5aR (Homo sapiens (Human))", "7.30 to 8.30"),
]

Now take the following compound into account.
[Q] So what does the record say about pIC50 for "Cc1cccc(C)c1CN1CCc2nn(-c3c(C)cccc3OCC(C)C)c(-c3ccc(NC(N)=O)cc3)c2C1" ?
[A] 7.30 to 8.30

----------
experimental_target: C5aR (Homo sapiens (Human))
protocol_text: Chemotaxis assay using U937 cells (C5aR mediated migration)
cond: read-out: Mig IC50
pIC50: −log10 of the molar value.
reported_endpoint: pIC50

# compound, pIC50
data = [
    ("CCc1cccc(CC)c1-n1nc2c(c1-c1cc(F)c(NC(N)=O)cc1F)CN(C(C)c1ccc(F)cc1)CC2 (stereo not shown) [Example 1.152]", "≥ 8.30"),
    ("Cc1cccc(OCC(C)C)c1-n1nc2c(c1-c1ccc(NC(N)=O)c(F)c1)CN(c1ncc(C(F)(F)F)cc1F)CC2 [Example 1.288]", "≥ 8.30"),
    ("Cc1ccc(C(C)(C)C)cc1N1CCc2nn(-c3c(C)cccc3C)c(-c3ccc(OC(C)C)cc3)c2C1 [Example 1.446]", "< 6.30"),
]

[Q] API: value(readout= pIC50, system= C5aR (Homo sapiens (Human)), query= Cc1cccc(OCC(C)C)c1-n1nc2c(c1-c1ccc(NC(N)=O)c(F)c1)CN(Cc1nccs1)CC2 [Example 1.234] )
[A] 7.30 to 8.30

All figures here come from patent US11478460B2.
